Please provide measured MIC for the entries that follow.
Test system: Streptococcus pyogenes C 203
Assay: In vitro antibacterial activity, MIC, broth microdilution
Assay type: cell-based
Settings: Streptococcus pyogenes, C203; S. pyogenes C 203; MHB + 5% horse serum; 37° C., 18 hours; read-out: minimum inhibiting concentration MIC
Respond numerically; units are ng/mL and should not be typed.

MIC lookup needed for `CC[C@H]1OC(=O)[C@H](C)[C@@H](O[C@H]2C[C@@](C)(OC)[C@@H](O)[C@H](C)O2)[C@H](C)[C@@H](O[C@@H]2O[C@H](C)C[C@H](N(C)C)[C@H]2O)[C@](C)(O)C[C@@H](C)/C(=N\OCCNCCCCCCNCc2ccc(OC)cc2)[C@H](C)[C@@H](O)[C@]1(C)O` , thanks.
3.9

Next up: `CC[C@H]1OC(=O)[C@H](C)[C@@H](O[C@H]2C[C@@](C)(OC)[C@@H](O)[C@H](C)O2)[C@H](C)[C@@H](O[C@@H]2O[C@H](C)C[C@H](N(C)C)[C@H]2O)[C@](C)(O)C[C@@H](C)/C(=N\OCCNCCCCCCNCc2ccc(O)c([N+](=O)[O-])c2)[C@H](C)[C@@H](O)[C@]1(C)O`
7.8

Next up: `CC[C@H]1OC(=O)[C@H](C)[C@@H](O[C@H]2C[C@@](C)(OC)[C@@H](O)[C@H](C)O2)[C@H](C)[C@@H](O[C@@H]2O[C@H](C)C[C@H](N(C)C)[C@H]2O)[C@](C)(O)C[C@@H](C)/C(=N\OCCNCCCCCCNCc2cccc(Oc3ccccc3)c2)[C@H](C)[C@@H](O)[C@]1(C)O`
7.8

----------
Test system: Streptococcus pneumoniae BS 4
Test: In vitro antibacterial activity, MIC, broth microdilution
Format: cell-based
Conditions: Streptococcus pneumoniae, BS4; S. pneumoniae BS 4; MHB + 5% horse serum; 37° C., 18 hours; read-out: minimum inhibiting concentration MIC
measuredMetric: log10(MIC) (log10 of the value in µg/mL)
Use the decimal logarithm of MIC (µg/mL).

log10(MIC) lookup needed for CC[C@H]1OC(=O)[C@H](C)[C@@H](O[C@H]2C[C@@](C)(OC)[C@@H](O)[C@H](C)O2)[C@H](C)[C@@H](O[C@@H]2O[C@H](C)C[C@H](N(C)C)[C@H]2O)[C@](C)(O)C[C@@H](C)/C(=N\OCCNCCCCCNCc2ccccc2)[C@H](C)[C@@H](O)[C@]1(C)O [Compound 10] , thanks.
-1.81

Next up: CC[C@H]1OC(=O)[C@H](C)[C@@H](O[C@H]2C[C@@](C)(OC)[C@@H](O)[C@H](C)O2)[C@H](C)[C@@H](O[C@@H]2O[C@H](C)C[C@H](N(C)C)[C@H]2O)[C@](C)(O)C[C@@H](C)/C(=N\OCCNCCCCCCNCc2cc(Cl)cc(Cl)c2O)[C@H](C)[C@@H](O)[C@]1(C)O [Compound 32]
-1.51

Next up: CC[C@H]1OC(=O)[C@H](C)[C@@H](O[C@H]2C[C@@](C)(OC)[C@@H](O)[C@H](C)O2)[C@H](C)[C@@H](O[C@@H]2O[C@H](C)C[C@H](N(C)C)[C@H]2O)[C@](C)(O)C[C@@H](C)/C(=N\OCCNCCCCCCNCc2ccccc2C(F)(F)F)[C@H](C)[C@@H](O)[C@]1(C)O [Compound 21]
-2.41

Next up: CC[C@H]1OC(=O)[C@H](C)[C@@H](O[C@H]2C[C@@](C)(OC)[C@@H](O)[C@H](C)O2)[C@H](C)[C@@H](O[C@@H]2O[C@H](C)C[C@H](N(C)C)[C@H]2O)[C@](C)(O)C[C@@H](C)/C(=N\OCCCCCCNCCCNCc2ccccc2)[C@H](C)[C@@H](O)[C@]1(C)O [Compound 7]
-1.20

Next up: CC[C@H]1OC(=O)[C@H](C)[C@@H](O[C@H]2C[C@@](C)(OC)[C@@H](O)[C@H](C)O2)[C@H](C)[C@@H](O[C@@H]2O[C@H](C)C[C@H](N(C)C)[C@H]2O)[C@](C)(O)C[C@@H](C)/C(=N\OCCNCCCCCCNCc2ccc(F)cc2)[C@H](C)[C@@H](O)[C@]1(C)O [Compound 16]
-1.81

Next up: CCCCOc1ccc(CNCCCCCCNCCO/N=C2\[C@H](C)C[C@@](C)(O)[C@H](O[C@@H]3O[C@H](C)C[C@H](N(C)C)[C@H]3O)[C@@H](C)[C@H](O[C@H]3C[C@@](C)(OC)[C@@H](O)[C@H](C)O3)[C@@H](C)C(=O)O[C@H](CC)[C@@](C)(O)[C@H](O)[C@H]2C)cc1 [Compound 26]
-1.81

Next up: CC[C@H]1OC(=O)[C@H](C)[C@@H](O[C@H]2C[C@@](C)(OC)[C@@H](O)[C@H](C)O2)[C@H](C)[C@@H](O[C@@H]2O[C@H](C)C[C@H](N(C)C)[C@H]2O)[C@](C)(O)C[C@@H](C)/C(=N\OCCCCCNCCCCCCNCc2ccccc2)[C@H](C)[C@@H](O)[C@]1(C)O [Compound 11]
-0.30

----------
System: Streptococcus pneumoniae BS 3
Test: In vitro antibacterial activity, MIC, broth microdilution
Type: cell-based
Conditions: Streptococcus pneumoniae, BS3; S. pneumoniae BS 3; MHB + 5% horse serum; 37° C., 18 hours; read-out: minimum inhibiting concentration MIC
measuredMetric: MIC (ng/mL)
Respond numerically; units are ng/mL and should not be typed.

MIC lookup needed for CC[C@H]1OC(=O)[C@H](C)[C@@H](O[C@H]2C[C@@](C)(OC)[C@@H](O)[C@H](C)O2)[C@H](C)[C@@H](O[C@@H]2O[C@H](C)C[C@H](N(C)C)[C@H]2O)[C@](C)(O)C[C@@H](C)/C(=N\OCCNCCCCCCNCc2ccc([N+](=O)[O-])cc2)[C@H](C)[C@@H](O)[C@]1(C)O [Compound 35] , thanks.
3.9

Next up: CC[C@H]1OC(=O)[C@H](C)[C@@H](O[C@H]2C[C@@](C)(OC)[C@@H](O)[C@H](C)O2)[C@H](C)[C@@H](O[C@@H]2O[C@H](C)C[C@H](N(C)C)[C@H]2O)[C@](C)(O)C[C@@H](C)/C(=N\OCCCCCCNCCCCCCNCc2ccccc2)[C@H](C)[C@@H](O)[C@]1(C)O [Compound 6]
15.6

----------
Test system: Streptococcus pneumoniae BS 4
Assay: In vitro antibacterial activity, MIC, broth microdilution
Format: cell-based
Conditions: Streptococcus pneumoniae, BS4; S. pneumoniae BS 4; MHB + 5% horse serum; 37° C., 18 hours; read-out: minimum inhibiting concentration MIC
measuredMetric: MIC (µg/mL)
Respond numerically; units are µg/mL and should not be typed.

MIC lookup needed for CC[C@H]1OC(=O)[C@H](C)[C@@H](O[C@H]2C[C@@](C)(OC)[C@@H](O)[C@H](C)O2)[C@H](C)[C@@H](O[C@@H]2O[C@H](C)C[C@H](N(C)C)[C@H]2O)[C@](C)(O)C[C@@H](C)/C(=N\OCCNCCNCc2ccccc2)[C@H](C)[C@@H](O)[C@]1(C)O [Compound 5] , thanks.
0.0312

Next up: CC[C@H]1OC(=O)[C@H](C)[C@@H](O[C@H]2C[C@@](C)(OC)[C@@H](O)[C@H](C)O2)[C@H](C)[C@@H](O[C@@H]2O[C@H](C)C[C@H](N(C)C)[C@H]2O)[C@](C)(O)C[C@@H](C)/C(=N\OCCNCCCCCCNCc2cccc(Oc3ccccc3)c2)[C@H](C)[C@@H](O)[C@]1(C)O [Compound 27]
0.0078

Next up: CC[C@H]1OC(=O)[C@H](C)[C@@H](O[C@H]2C[C@@](C)(OC)[C@@H](O)[C@H](C)O2)[C@H](C)[C@@H](O[C@@H]2O[C@H](C)C[C@H](N(C)C)[C@H]2O)[C@](C)(O)C[C@@H](C)/C(=N\OCCNCCCCCCNCc2ccccc2)[C@H](C)[C@@H](O)[C@]1(C)O [Compound 4]
0.0156

Next up: CC[C@H]1OC(=O)[C@H](C)[C@@H](O[C@H]2C[C@@](C)(OC)[C@@H](O)[C@H](C)O2)[C@H](C)[C@@H](O[C@@H]2O[C@H](C)C[C@H](N(C)C)[C@H]2O)[C@](C)(O)C[C@@H](C)/C(=N\OCCNCCCCCCNCc2ccco2)[C@H](C)[C@@H](O)[C@]1(C)O [Compound 31]
0.0078

Next up: CC[C@H]1OC(=O)[C@H](C)[C@@H](O[C@H]2C[C@@](C)(OC)[C@@H](O)[C@H](C)O2)[C@H](C)[C@@H](O[C@@H]2O[C@H](C)C[C@H](N(C)C)[C@H]2O)[C@](C)(O)C[C@@H](C)/C(=N\OCOCCOC)[C@H](C)[C@@H](O)[C@]1(C)O [Roxithromycin, reference compound]
0.0625

Next up: CC[C@H]1OC(=O)[C@H](C)[C@@H](O[C@H]2C[C@@](C)(OC)[C@@H](O)[C@H](C)O2)[C@H](C)[C@@H](O[C@@H]2O[C@H](C)C[C@H](N(C)C)[C@H]2O)[C@](C)(O)C[C@@H](C)/C(=N\OCCNCCCCCCNCc2cccc(C(F)(F)F)c2)[C@H](C)[C@@H](O)[C@]1(C)O [Compound 19]
0.0078

Next up: CC[C@H]1OC(=O)[C@H](C)[C@@H](O[C@H]2C[C@@](C)(OC)[C@@H](O)[C@H](C)O2)[C@H](C)[C@@H](O[C@@H]2O[C@H](C)C[C@H](N(C)C)[C@H]2O)[C@](C)(O)C[C@@H](C)/C(=N\OCCNCCCCCCNCc2cccc(O)c2)[C@H](C)[C@@H](O)[C@]1(C)O [Compound 25]
0.25

The measured values listed here are drawn from patent US5847092A.
